assay_procedure: Inhibition of porcine PDK assessed as activation of pyruvate dehydrogenase complex measured after 3 mins
Design: species or system Sus scrofa
Catalogue of pEC50 values
Value format note: pEC50 is -log10 of concentration (mol/L); just state the number.

Exam item: Entry "C[C@H]1CCc2c(sc3nc(SCCN4CCCC4)n(N)c(=O)c23)C1" : reported pEC50 = ?
Marked response: 5.80

Further cases:
Exam item: Entry "Cc1cccc(NC(=O)CSc2n[nH]c(-c3ccccc3O)n2)c1C" : reported pEC50 = ?
Marked response: 6.47

Exam item: Entry "O=C(Nc1ccc(Cl)cc1C(=O)N1CCCC[C@@H]1CCO)c1ccc(Cl)cc1Cl" : reported pEC50 = ?
Marked response: 5.08

Exam item: Entry "CC(C)CNS(=O)(=O)c1ccc(OCC(=O)N(Cc2ccccc2)Cc2ccccc2)cc1" : reported pEC50 = ?
Marked response: 5.85

Exam item: Entry "COc1ccc(C(=O)CSc2nnc(CNc3ccccc3OC)n2-c2ccccc2)cc1" : reported pEC50 = ?
Marked response: 5.28

Exam item: Entry "CC(=O)N[C@@H](Cc1c[nH]c2ccccc12)C(=O)NCCOc1ccc(C2CCCCC2)cc1" : reported pEC50 = ?
Marked response: 5.46

Exam item: Entry "Cc1cnc(Cl)nc1-c1ccc(N(Cc2ccc(CNC(=O)C(F)F)cc2)C(=O)c2ccc(O)cc2O)cc1" : reported pEC50 = ?
Marked response: 6.92

Exam item: Entry "Cc1ccc(NC(=O)CSc2c[nH]c(-c3ccccc3O)n2)cc1" : reported pEC50 = ?
Marked response: 5.34

Exam item: Entry "CCOc1ccc([C@@H]2C(C(=O)Nc3cccnc3)=C(C)Nc3nc(CCCO)nn32)cc1" : reported pEC50 = ?
Marked response: 5.23

Exam item: Entry "COc1ccc(-c2nnn(CC(=O)Nc3cccc(F)c3)n2)cc1" : reported pEC50 = ?
Marked response: 5.16
